Reference source: patent US20240409645A1

# System: T1, human IL-2Rβ (human, UniProt P14784 27-240, limits assumed)
# T1 construct: Recombinant protein, coated (ELISA) or immobilised on CM5 (SPR); also called hu IL-2R; interleukin 2 receptor β-chain
# T1 sequence: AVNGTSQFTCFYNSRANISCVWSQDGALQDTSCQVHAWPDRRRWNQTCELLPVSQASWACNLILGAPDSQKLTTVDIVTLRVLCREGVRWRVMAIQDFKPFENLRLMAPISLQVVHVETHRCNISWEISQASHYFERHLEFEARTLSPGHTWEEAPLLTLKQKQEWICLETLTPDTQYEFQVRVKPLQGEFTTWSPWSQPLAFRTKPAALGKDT
# Experiment description: P.E. binding ELISA on coated protein
Reported P.E. binding ELISA OD is given for each of the following binders.
Remember to put the unit after the number in your answer.

- Binder: "FJ1427 P035MP02B12 (VHH, soluble VHH in periplasmic extract; also called clone nr) VHH: QVQLVESGGGLVQAGGSLRLSCAASGRADSNAIMAWFRQAPGKEREFIVAVTYSGMPTYQDDSVQGRFTASRDNAKNTVYLQMNSLKPEDTAVYYCAARMYSASTYYGDYDYWGQGTQVTVSS"
  Result: "1.25 OD450 nm"
- Binder: "FJ1427_P035MP06C01 (VHH, soluble VHH in periplasmic extract; also called clone nr) VHH: QVQLVESGGGLVQAGGSLRLSCAASGDVFVRYTMAWFRQAPGKEREFVASVTDSGRTTDYVDSVKGRFTVSRDNAKNTVYLQMNALKPEDTAVYYCAANTDYFQIKSLDLNTWGQGTQVTVSS"
  Result: "1.34 OD450 nm"
- Binder: "FJ1427 P035MP03B01 (VHH, soluble VHH in periplasmic extract; also called clone nr) VHH: QVQLVESGGGLVQAGGSLRLSCAASGFTFSNYAMSWVRQAPGKGLEWVSSITGFGRGTDYADSVKGRFTISRDNAKNTLYLQMNSLKPEDTAVYYCARYSSSTYYPPTPARGTDYRGQGTQVTVSS"
  Result: "0.203 OD450 nm"

Sample FJ1427_P035MP03F02 (VHH, soluble VHH in periplasmic extract; also called clone nr) VHH: QVQLVESGGGLVQPGGSLRLSCAASGFTFSNYAMSWVRQAPGKGLEWVSSITGAGRGTYYADSVKGRFTISRDNDKNTLYLQMNSLKPEDTAVYYCAKYDSSTYYPPTPARGIADRGQGIQVTVSS ; P.E. binding ELISA OD observed: 0.113 OD450 nm
